Hello, the source for this data is patent US4801616A, in case you need it.

Target: fatty acid cyclooxygenase (Homo sapiens)
Construct: The solubilized fatty acid cyclooxygenase was applied to a 440 ml electrofocusing column; from tissue; host or cells: human platelets: microsomes solubilized with Triton X-100, purified by electrofocusing and G-200 Sephadex
Experiment: Fatty Acid Cyclooxygenase (FCO) Assay, inhibition of PGE2 formation by purified human platelet enzyme
Assay type: biochemical
Details: percent inhibition at 30 μg/ml
Procedure: Fatty Acid Cyclooxygenase (FCO) Assay Microsomes were prepared from 185 bags of human platelets (each bag containing the platelets from one pint of blood prepared using differential centrifugation procedures). […] Enzyme activity was determined by assaying for PGE2 formation by preincubating the enzyme with 10 mmol/l imidazole phosphate buffer, pH 8.0, 2 mmol/l epinephrine, 2 mmol/l methemoglobin, and the test compound (30 μg/ml) in a total volume of 0.2 ml for one minute at 37° C. […]
Parameter Measured: inhibition at 30 µg/mL (%)
Output spec: scalar in %, unitless text.

Give me measured inhibition at 30 µg/mL, please, for this molecule: CCCc1c(OCCCCc2nnnn2C)ccc(C(=O)c2ccccc2OC)c1O
0

Give me measured inhibition at 30 µg/mL, please, for this molecule: CCCc1c(OCc2nnn[nH]2)ccc(C(=O)c2ccccc2O)c1O
0

Give me measured inhibition at 30 µg/mL, please, for this molecule: CCCc1c(OCCCCC#N)ccc(C(=O)c2ccccc2OC)c1O
15

Give me measured inhibition at 30 µg/mL, please, for this molecule: CCCc1c(OCCCCCCC#N)ccc(C(=O)c2ccccc2O)c1O
37

Give me measured inhibition at 30 µg/mL, please, for this molecule: CCCc1c(OCCCCc2nnn[nH]2)ccc(C(=O)c2ccccc2OC)c1O
17

Give me measured inhibition at 30 µg/mL, please, for this molecule: CCCc1c(OCc2ccc(C#N)cc2)ccc(C(=O)c2ccccc2O)c1O
48

Give me measured inhibition at 30 µg/mL, please, for this molecule: CCCc1c(O)ccc(C(=O)c2ccccc2Cl)c1O
100

Give me measured inhibition at 30 µg/mL, please, for this molecule: CCCc1c(OC(C)=O)ccc(C(=O)c2ccccc2OC(C)=O)c1O
12

Give me measured inhibition at 30 µg/mL, please, for this molecule: CCCc1c(OCCCCCC#N)ccc(C(=O)c2ccccc2O)c1O
40

Give me measured inhibition at 30 µg/mL, please, for this molecule: CCCc1c(OCCCCc2nnn[nH]2)ccc(C(=O)c2ccccc2O)c1O
44

Give me measured inhibition at 30 µg/mL, please, for this molecule: COc1ccccc1C(=O)c1ccc(OC)c(C)c1O
35

Give me measured inhibition at 30 µg/mL, please, for this molecule: CCCc1c(OCCCCC#N)ccc(C(=O)c2ccccc2OC)c1OC
9

Give me measured inhibition at 30 µg/mL, please, for this molecule: CCCc1c(OCCCc2nnn[nH]2)ccc(C(=O)c2ccccc2O)c1O
15

---

Molecular target: 5-lipoxygenase (Cavia porcellus)
Construct: incubating 0.2 ml of the supernatant obtained from the PMNL sonicate with the test compound
Experiment: 5-Lipoxygenase (5-LPO) Assay, inhibition of 5-HETE formation in PMNL sonicate supernatant
Conditions: guinea pig PMNL sonicate supernatant, 37° C., 5 μM 14C-arachidonic acid
Parameter Measured: pIC50
// pIC50: -log10(molar conc.)

Give me measured pIC50, please, for this molecule: CCCc1c(OCCCCc2nnn[nH]2)ccc(C(=O)c2ccccc2OC)c1OC
4.85

Give me measured pIC50, please, for this molecule: CCCc1c(OCCCCC#N)ccc(C(=O)c2ccccc2O)c1O
5.55

Give me measured pIC50, please, for this molecule: CCCc1c(O)ccc(C(=O)c2ccccc2O)c1O
5.23

Give me measured pIC50, please, for this molecule: CCCc1c(OCCCCc2nnn[nH]2)ccc(C(=O)c2ccccc2O)c1O
5.90

Give me measured pIC50, please, for this molecule: CCCc1c(OCCCCCC#N)ccc(C(=O)c2ccccc2O)c1O
5.26

Give me measured pIC50, please, for this molecule: CCCc1c(OCc2ccc(-c3nnn[nH]3)cc2)ccc(C(=O)c2ccccc2O)c1O
5.03

Give me measured pIC50, please, for this molecule: CCCc1cc(C(=O)c2ccccc2O)c(O)c(CCC)c1O
4.20

Give me measured pIC50, please, for this molecule: CCCc1c(OCCCCC#N)ccc(C(=O)c2ccccc2OC)c1O
4.66

Give me measured pIC50, please, for this molecule: CCCc1c(OCCCCCCc2nnn[nH]2)ccc(C(=O)c2ccccc2O)c1O
4.93

---

Lab note: pIC50 readings collected with fatty acid cyclooxygenase (Homo sapiens, UniProt P23219) for the following compounds.
Sequence (P23219 24-599): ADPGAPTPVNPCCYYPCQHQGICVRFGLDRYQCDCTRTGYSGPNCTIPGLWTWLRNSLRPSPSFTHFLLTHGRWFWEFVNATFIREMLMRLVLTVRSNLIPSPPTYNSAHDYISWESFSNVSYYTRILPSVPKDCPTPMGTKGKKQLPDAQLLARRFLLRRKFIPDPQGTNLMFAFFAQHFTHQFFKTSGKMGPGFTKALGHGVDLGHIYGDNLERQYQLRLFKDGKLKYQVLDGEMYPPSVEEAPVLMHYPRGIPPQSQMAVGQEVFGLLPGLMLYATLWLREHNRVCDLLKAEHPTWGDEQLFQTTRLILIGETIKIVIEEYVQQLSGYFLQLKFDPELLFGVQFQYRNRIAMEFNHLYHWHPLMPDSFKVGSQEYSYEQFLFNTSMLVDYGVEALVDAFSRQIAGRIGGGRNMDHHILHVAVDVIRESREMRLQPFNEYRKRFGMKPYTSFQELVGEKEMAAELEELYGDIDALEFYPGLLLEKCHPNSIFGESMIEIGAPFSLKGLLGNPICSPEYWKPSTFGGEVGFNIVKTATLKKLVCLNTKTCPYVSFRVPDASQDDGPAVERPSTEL
// pIC50: -log10(molar conc.)

Give me measured pIC50, please, for this compound: CCCc1c(OC)ccc(C(=O)c2ccccc2OC)c1OC
4.76

Give me measured pIC50, please, for this compound: CCCc1c(OCc2ccc(-c3nnn[nH]3)cc2)ccc(C(=O)c2ccccc2O)c1O
4.49

Give me measured pIC50, please, for this compound: CCCc1cc(C(=O)c2ccccc2O)c(O)c(CCC)c1O
4.76

Give me measured pIC50, please, for this compound: CCCc1c(OC)ccc(C(=O)c2ccccc2O)c1O
5.31

Give me measured pIC50, please, for this compound: CCCc1c(OCC#N)ccc(C(=O)c2ccccc2O)c1O
4.49

Give me measured pIC50, please, for this compound: CCCc1c(OCCCCC#N)ccc(C(=O)c2ccccc2O)c1O
4.07

---

Molecular target: 5-lipoxygenase (Cavia porcellus, UniProt A0A286X958)
Construct: incubating 0.2 ml of the supernatant obtained from the PMNL sonicate with the test compound; from tissue; host or cells: casein-elicited guinea pig peritoneal polymorphonuclear leukocytes (PMNL, more than 95 percent of the cells), sonicated, 30,000 x g supernatant
Sequence (A0A286X958 1-674): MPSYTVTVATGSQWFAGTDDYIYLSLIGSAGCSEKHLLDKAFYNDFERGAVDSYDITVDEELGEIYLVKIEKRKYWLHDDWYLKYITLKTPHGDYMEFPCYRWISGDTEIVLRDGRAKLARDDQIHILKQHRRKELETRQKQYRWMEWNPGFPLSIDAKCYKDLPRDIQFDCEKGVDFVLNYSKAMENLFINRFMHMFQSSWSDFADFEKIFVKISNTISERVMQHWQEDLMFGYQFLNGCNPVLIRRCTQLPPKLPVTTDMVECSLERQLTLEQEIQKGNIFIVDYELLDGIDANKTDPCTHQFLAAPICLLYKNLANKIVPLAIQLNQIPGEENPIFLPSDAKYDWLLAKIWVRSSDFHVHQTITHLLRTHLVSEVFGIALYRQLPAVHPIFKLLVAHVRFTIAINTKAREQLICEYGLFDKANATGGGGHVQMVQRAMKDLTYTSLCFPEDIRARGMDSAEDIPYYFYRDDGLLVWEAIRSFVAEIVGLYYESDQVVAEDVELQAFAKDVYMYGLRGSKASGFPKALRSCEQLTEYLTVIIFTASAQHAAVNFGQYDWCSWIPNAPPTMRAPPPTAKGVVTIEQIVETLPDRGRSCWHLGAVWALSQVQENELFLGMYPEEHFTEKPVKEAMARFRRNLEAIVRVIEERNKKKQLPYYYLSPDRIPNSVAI
Assay: 5-Lipoxygenase (5-LPO) Assay, inhibition of 5-HETE formation in PMNL sonicate supernatant
Type: biochemical, guinea pig
Details: guinea pig PMNL sonicate supernatant, 37° C., 5 μM 14C-arachidonic acid
Parameter Measured: pIC50
// pIC50: -log10(molar conc.)

Give the observed pIC50 of CCCc1c(OCCCCCc2nnn[nH]2)ccc(C(=O)c2ccccc2O)c1O [Example 24] for 5-lipoxygenase (Cavia porcellus, UniProt A0A286X958).
4.53

Give the observed pIC50 of CCCc1c(OCCCCc2nnn[nH]2)ccc(C(=O)c2ccccc2OC)c1O [Example 23] for 5-lipoxygenase (Cavia porcellus, UniProt A0A286X958).
5.77

Give the observed pIC50 of COc1ccccc1C(=O)c1ccc(OC)c(C)c1O [Example 9] for 5-lipoxygenase (Cavia porcellus, UniProt A0A286X958).
5.44

Give the observed pIC50 of CCCc1c(O)ccc(C(=O)c2ccccc2Cl)c1O [Example 10] for 5-lipoxygenase (Cavia porcellus, UniProt A0A286X958).
4.76

Give the observed pIC50 of CCCc1c(OCCCc2nnn[nH]2)ccc(C(=O)c2ccccc2O)c1O [Example 27] for 5-lipoxygenase (Cavia porcellus, UniProt A0A286X958).
4.98

Give the observed pIC50 of CCCc1c(OCCCCc2nnn(C)n2)ccc(C(=O)c2ccccc2OC)c1O [Example 32] for 5-lipoxygenase (Cavia porcellus, UniProt A0A286X958).
6.33

Give the observed pIC50 of CCCc1c(OCCCCCCC#N)ccc(C(=O)c2ccccc2O)c1O [Example 14] for 5-lipoxygenase (Cavia porcellus, UniProt A0A286X958).
6.28

---

Target: 5-lipoxygenase (Cavia porcellus)
Construct: incubating 0.2 ml of the supernatant obtained from the PMNL sonicate with the test compound; from tissue; host or cells: casein-elicited guinea pig peritoneal polymorphonuclear leukocytes (PMNL, more than 95 percent of the cells), sonicated, 30,000 x g supernatant
Assay: 5-Lipoxygenase (5-LPO) Assay, inhibition of 5-HETE formation in PMNL sonicate supernatant
Type: biochemical, guinea pig
Settings: guinea pig PMNL sonicate supernatant, 37° C., 5 μM 14C-arachidonic acid
Rule: measured IC50 below 20 µM gets true; anything equal to or greater than 20 µM gets false.

Find out if reported IC50 for CCCc1c(OCCCCCCCCc2nnn[nH]2)ccc(C(=O)c2ccccc2O)c1O is less than 20 µM
true

Find out if reported IC50 for CCCc1c(OCCCCC(=O)N(CC)CC)ccc(C(=O)c2ccccc2OC)c1OC is less than 20 µM
true

Find out if reported IC50 for C=C(c1ccccc1OC)c1ccc(OCCCCC#N)c(CCC)c1OC is less than 20 µM
false

Find out if reported IC50 for CCCc1c(OCCCCC#N)ccc(C(=O)c2ccccc2OC)c1OC is less than 20 µM
false

Find out if reported IC50 for CCCc1c(OC(C)=O)ccc(C(=O)c2ccccc2OC(C)=O)c1O is less than 20 µM
true

---

Target: 5-lipoxygenase (Cavia porcellus, UniProt A0A286X958)
Construct: incubating 0.2 ml of the supernatant obtained from the PMNL sonicate with the test compound
Test: 5-Lipoxygenase (5-LPO) Assay, inhibition of 5-HETE formation in PMNL sonicate supernatant
Conditions: guinea pig PMNL sonicate supernatant, 37° C., 5 μM 14C-arachidonic acid
Parameter Measured: pIC50
// pIC50: -log10(molar conc.)

Give the observed pIC50 of CCCc1c(OCC#N)ccc(C(=O)c2ccccc2O)c1O [Example 12] for 5-lipoxygenase (Cavia porcellus, UniProt A0A286X958).
4.65

Give the observed pIC50 of CCCc1c(OC)ccc(C(=O)c2ccccc2OC)c1OC [Example 1] for 5-lipoxygenase (Cavia porcellus, UniProt A0A286X958).
6.02

Give the observed pIC50 of CCCc1c(OC)ccc(C(=O)c2ccccc2O)c1O [Example 3] for 5-lipoxygenase (Cavia porcellus, UniProt A0A286X958).
5.98

Give the observed pIC50 of CCCc1c(OC)ccc(C(=O)c2ccccc2O)c1OC [Example 2] for 5-lipoxygenase (Cavia porcellus, UniProt A0A286X958).
5.57

Give the observed pIC50 of CCCc1c(OCCCCc2nnnn2C)ccc(C(=O)c2ccccc2OC)c1O [Example 33] for 5-lipoxygenase (Cavia porcellus, UniProt A0A286X958).
6.15
